- tgt: dAsCas12a S542R (Acidaminococcus sp., UniProt U2UMQ6 1-1307, S542R;D908A;E993A;D1235A)
- assayOverview: Spec-seq (native PAGE EMSA with sequencing of bound and unbound); 25 mM Tris-HCl pH 7.4, 150 mM KCl, 5 mM MgCl2, 10% glycerol, 1 mM DTT, 40 ng/uL salmon sperm DNA; 400 nM Cas12a, 480 nM crRNA, 50 nM library, 37 C 1 h; native PAGE at room temperature; high values mean tight binding;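 also: relative affinity from the bound to unbound sequence frequency ratio in Spec-seq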
- assayConditions: protein: recombinant
experimentalReadout: binding signal (lnKA)
Answers are plain numbers, in lnKA.

CGTA (dsDNA) DNA 1: GCTATCTAGTGCTCAGTACGCACTGCGTAAGGAAACTTCTGGCAGGACCAGGTCATGAGATCGGAAGAGCACACGTCTGAACTCCAGTCA DNA 2: TGACTGGAGTTCAGACGTGTGCTCTTCCGATCTCATGACCTGGTCCTGCCAGAAGTTTCCTTACGCAGTGCGTACTGAGCACTAGATAGC RNA: AAUUUCUACUCUUGUAGAUAGGAAACUUCUGGCAGGACC; -8.4
CGTC (dsDNA) DNA 1: GCTATCTAGTGCTCAGTACGCACTGCGTCAGGAAACTTCTGGCAGGACCAGGTCATGAGATCGGAAGAGCACACGTCTGAACTCCAGTCA DNA 2: TGACTGGAGTTCAGACGTGTGCTCTTCCGATCTCATGACCTGGTCCTGCCAGAAGTTTCCTGACGCAGTGCGTACTGAGCACTAGATAGC RNA: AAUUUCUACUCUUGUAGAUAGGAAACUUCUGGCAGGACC; -8.67

Please find the next binder below.
Per the record, TTAT (dsDNA) DNA 1: GCTATCTAGTGCTCAGTACGCACTGTTATAGGAAACTTCTGGCAGGACCAGGTCATGAGATCGGAAGAGCACACGTCTGAACTCCAGTCA DNA 2: TGACTGGAGTTCAGACGTGTGCTCTTCCGATCTCATGACCTGGTCCTGCCAGAAGTTTCCTATAACAGTGCGTACTGAGCACTAGATAGC RNA: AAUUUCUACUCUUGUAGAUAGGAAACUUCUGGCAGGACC has binding signal of -7.55
